A collection of binders and their measured Anti-CD28 Fab signal in the presence of CD28
EXPERIMENTAL_TARGET: Anti-CD28 Fab (SEQ ID NOs: 696, 697)
Sequence (VH, as listed by the source, chain 1 of 2): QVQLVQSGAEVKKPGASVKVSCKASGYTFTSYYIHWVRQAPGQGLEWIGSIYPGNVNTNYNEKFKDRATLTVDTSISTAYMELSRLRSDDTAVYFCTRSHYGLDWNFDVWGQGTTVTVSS
Sequence (VL, as listed by the source, chain 2 of 2): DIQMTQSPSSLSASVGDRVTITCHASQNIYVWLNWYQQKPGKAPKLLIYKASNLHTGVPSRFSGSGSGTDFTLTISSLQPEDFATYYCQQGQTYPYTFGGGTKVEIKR
TEST_DETAILS: phage binding ELISA; Fab-coated wells pre-incubated with CD28 antigen as competitor;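 further: clonal phage supernatants added to wells preincubated with CD28 antigen or blocking buffer only, bound phage detected with HRP-conjugated anti-M13 antibody, buffer-only wells as control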
PROPERTY: Anti-CD28 Fab signal in the presence of CD28

BINDER	READING
TCSAGAEYTWPLCF [Phage-1591]	0.08
PCAAGAHYTWPTCL [Phage-1604]	0.07
TCSAGANWVWPLCL [Phage-1595]	0.07
SCSAFFHFHWPACL [Phage-1594]	0.06
LCSAGAMWEWPLCL [Phage-1599]	0.07
TCSAGAHWVWPYCL [Phage-1596]	0.09
